- Test system: UACC-257 melanoma
- PROCEDURE_DETAILS: NCI tumour cell line growth inhibition, 48 h
QUANTITY_MEASURED: GI50

COMPOUND | TESTED_TARGET | RECORDED_MEASUREMENT
COC(=O)[C@]12CC[C@@H](C)[C@H](C)[C@@H]1C1=CC[C@@H]3[C@@]4(C)C[C@@H](OC(C)=O)[C@H](O)[C@@](C)(CO)[C@@H]4[C@H](O)C[C@@]3(C)[C@]1(C)CC2 | UACC-257 melanoma | 13.4 µM

**Query** Quickly give me recorded GI50 for "C#CC#CC#CC#CC#CC#CC#CC#CC[C@@H]1OC[C@H](COC(=O)O[C@@H](C(=O)O[C@H]2C[C@@]3(O)[C@@H](OC(=O)c4ccccc4)[C@@H]4[C@]5(OC(C)=O)CO[C@@H]5C[C@H](O)[C@@]4(C)C(=O)[C@H](OC(C)=O)C(=C2C)C3(C)C)[C@@H](NC(=O)c2ccccc2)c2ccccc2)O1"
**Result** 6.61 µM

**Query** Provide only the value of recorded GI50 for "O=C(NNC(=O)c1ccccc1S)c1ccccc1S"
**Result** 2.57 µM

**Query** Provide one value: measured GI50 of "O=S(=O)(Nc1ccc2ccccc2c1)N1CCCCC1"
**Result** 10.1 µM

---

Each record here notes measured TGI.
- System: SF-268 CNS
- PROCEDURE_DETAILS: NCI tumour cell line growth inhibition, 48 h
Where a SMILES comes first, the peptide text is derived from it.

Some solved cases for reference:
COMPOUND | QUANTITY_MEASURED | RECORDED_MEASUREMENT
O=c1[nH]c(=O)n(C2CC(O)C(CO)O2)cc1/C=C/Br (stereo not drawn) | TGI | > 100 µM
O=C1/C(=C/c2ccc(Cl)cc2)N=C(c2ccccc2)N1c1nc2ccc(Sc3ccccc3)cc2[nH]1 | TGI | > 100 µM
CCOC(=O)C(/C(=N/NC(=O)OC)C(=O)Nc1ccc(C(C)=O)cc1)c1cnc2ccccc2n1 (stereo not drawn) | TGI | > 100 µM

**Query** Kindly indicate its recorded TGI. Item: "COc1ccc(/C=C/C(=O)Nc2cc(/C=C\c3cc(OC)c(OC)c(OC)c3)cc(OC)c2OC)cc1OC"
**Result** > 100 µM

**Query** Consider the compound Oc1ccc2c(c1)OCC1(O)Cc3cc(O)c(O)cc3C21 (stereo not drawn) and give its recorded TGI.
**Result** > 68.2 µM

**Query** Entry CC(=O)OC1COC(n2nc(N)nc2C)C(OC(C)=O)C1OC(C)=O (stereo not drawn) needs its TGI filled in; supply it.
**Result** > 100 µM

**Query** Give the reported TGI for this compound. COC(=O)C(/C(=N/NC(N)=O)C(=O)Nc1c(C)cccc1C(C)(C)C)c1nc2ccc(Cl)cc2[nH]c1=O (stereo not drawn)
**Result** > 100 µM

**Query** Recall and state the measured TGI for CCC(C)C1NC(=O)C(CCCCN)NC(=O)C(CCCCN)NC(=O)C(CC(C)C)NC(=O)C(CCCCN)NC(=O)C(C(C)CC)NC(=O)C(C(C)C)NC(=O)C(C(C)CC)NC(=O)C(CCCCN)NC(=O)C(CCCCN)NC(=O)C(C)NC(=O)C(CCCCN)NC(=O)C(CC(C)C)NC1=O (stereo not drawn) (cyclo(AKKIVIKLKKILK); configuration not given here) .
**Result** 11.3 µM

**Query** Return reported TGI. Input compound: "CN(C)CCNc1ccc2nnn3c4ccc(O)cc4c(=O)c1c23"
**Result** 20.7 µM

**Query** Given the compound "CCCCS/C(=C(/C#N)C(N)=O)c1cc2c([nH]1)CCCC2" , write its reported TGI.
**Result** 26.7 µM

**Query** Report measured TGI; entry is "COc1ccc2c(c1OC)OC[C@@H](C1=CC(=O)C=C(O)C1=O)C2"
**Result** 38.1 µM

**Query** Fill in reported TGI for this entry: "CC(=O)/C(=C\c1c(-c2ccccc2)[nH]c2ccccc12)S(C)(=O)=O"
**Result** > 93.9 µM

**Query** Output measured TGI for this item: "CCOC(=O)c1cc2c([nH]1)c(OC(C)=O)cc1c2ccn1Cc1ccccc1"
**Result** > 100 µM

**Query** Recall and state the measured TGI for CCCCCCCCCCCCC(CC)CCCCC(=O)O (stereo not drawn) .
**Result** > 100 µM

**Query** # return recorded TGI for input O=C(O)CCC1(C(=O)O)CCC(=O)c2ccccc21 (stereo not drawn)
**Result** > 100 µM

---

Listing: TGI of selected compounds
- Test system: OVCAR-4 ovarian
- PROCEDURE_DETAILS: NCI tumour cell line growth inhibition, 48 h

Examples with their reported TGI follow.
COMPOUND | QUANTITY_MEASURED | RECORDED_MEASUREMENT
COc1ccc(NC(=S)N/N=C(\c2ccccc2)c2ccccn2)cc1 | TGI | 16.9 µM
CC[C@@]1(C[C@H]2C[C@@]3(C(=O)OC)c4[nH]c5ccccc5c4CCN3C2=S)COC2(CCCCC2)O1 | TGI | > 100 µM
COc1ccc(-c2csc(=[N+]3CCCCC3)s2)cc1 | TGI | 36.1 µM

Consider the record given below.
**Query** Check the records and state TGI for "CC(C)NCCCNc1c2ccccc2nc2cccc([N+](=O)[O-])c12"
**Result** 0.0236 µM

---

- System: HS 578T breast
- PROCEDURE_DETAILS: NCI tumour cell line growth inhibition, 48 h
QUANTITY_MEASURED: TGI

MOLECULE | TGI
CCC(=O)NC(Nc1ccccc1F)(C(F)(F)F)C(F)(F)F | > 100 µM
Fc1ccc(-c2ncn(C3CCNCC3)c2-c2ccnc(Oc3cccc(C(F)(F)F)c3)n2)cc1 | 7.07 µM
CN/N=C(/C=C/c1ccccc1)C(C)C | > 100 µM

**Query** Tell us which TGI value is on record for "CCNC(=O)N1CCc2c(Cl)c3c(c(OC)c2[C@@H]1[C@H]1OCc2c1ccc(OC)c2OC)OCCO3"
**Result** 9.13 µM

**Query** Respond only with TGI recorded for COC(=O)C(C)NP(=O)(OCc1ccc(Cn2cnc3c(N)ncnc32)cc1)Oc1ccccc1 (configuration not stated)
**Result** 49.7 µM

**Query** # return recorded TGI for entry "CCOC(=O)c1cc2c([nH]1)c(OC(C)=O)cc1c2ccn1Cc1ccccc1"
**Result** > 100 µM

**Query** Query TGI for "CCCCCCCCn1ccc2cc(NC(=O)Cn3cc(CN4CCN(CC)CC4)nn3)ccc21"
**Result** 5.54 µM

**Query** Input "O=C1c2ccccc2CC12CCC1(CC2)OCCO1" , output reported TGI.
**Result** > 100 µM

**Query** Specify TGI for CC1CC(c2ccccc2)Nc2nc3ccccc3n21 (configuration not stated) and stop.
**Result** > 100 µM

**Query** Kindly indicate its recorded TGI. Item: "Cc1ncc([N+](=O)[O-])n1CCNC(=O)CCC(=O)NCCCn1ccnc1[N+](=O)[O-]"
**Result** > 100 µM

**Query** Give the reported TGI for this molecule. "CCCCCCCCCCCCCCCC(=O)Nc1ccn([C@@H]2O[C@H](CO)[C@@H](O)[C@@H]2C#N)c(=O)n1"
**Result** > 100 µM

**Query** // Input: CCOc1ccc(C2Oc3c(cccc3OC)C=C2[N+](=O)[O-])cc1OCC (configuration not stated) . Output its TGI only.
**Result** > 100 µM

**Query** Give the reported TGI for this molecule. "Cc1cc(O)c(C=NC(=S)c2ccncc2)c(=O)o1"
**Result** > 100 µM

**Query** Consider the molecule "COc1ccc(CCc2nc3cc(-c4c(C)noc4C)ccc3n2CCN2CCOCC2)cc1" . State its measured TGI.
**Result** > 100 µM

---

- Tested on: BT-549 breast
- PROCEDURE_DETAILS: NCI tumour cell line growth inhibition, 48 h
QUANTITY_MEASURED: TGI

Reference set, count: 10
COMPOUND | TGI
Cc1ccc(S(=O)(=O)C2=C([Si](C)(C)C)C3CC2[C@@H]2C4C=CC(CC4)[C@H]32)cc1 (stereo partly specified) | > 100 µM
CCOC(=O)CC1C(O)C(=O)N(C)C1c1ccccc1 (stereo unspecified) | > 100 µM
Cc1ccc(I)cc1N=C=S | 30.5 µM
COc1ccc2c(c1)C(=O)C1(C2)[C@H](c2ccccc2)C2C(=O)c3cc(OC)ccc3C2[C@H]1c1ccccc1 (stereo partly specified) | > 100 µM
CN(C)CCNS(=O)(=O)N(C)C | > 100 µM
CN(C)c1nc2n(CCO)ccnc-2c(=O)n1 | > 100 µM
C=C(C)[C@@H]1CC[C@]2(C(N)=O)CC[C@]3(C)[C@H](CC[C@@H]4[C@@]5(C)C/C(=C/c6cccnc6)C(=O)C(C)(C)[C@@H]5CC[C@]43C)[C@@H]12 | > 100 µM
NC(N)=NCCN1CCCCCc2ccccc21 | > 10 µM
COc1cc2nccc(Oc3ccc(NC(=O)C4(C(=O)Nc5ccc(F)cc5)CC4)cc3)c2cc1OC(=O)c1ccc(N)cc1 | > 100 µM
CN1CCN(Cc2nc3cccc4c3c([n+]2[O-])-c2ccccc2-4)CC1 | > 100 µM

**Query** Find the measured TGI of "CCCCCCCCCCCCCCCC(=O)Nc1ccn([C@@H]2O[C@H](CO)[C@@H](O)[C@@H]2C#N)c(=O)n1" with BT-549 breast as test system.
**Result** > 100 µM

**Query** Find TGI for "O=c1cc(-c2ccccc2)[nH]c2ccc(N3CCCC3)cc12" on BT-549 breast and write it down.
**Result** > 100 µM

**Query** Please look at COc1cc2c(cc1OCCCC(=O)Nc1cc(C(=O)Nc3cc(C(=O)Nc4cc(C(=O)NCCCN(C)C)n(C)n4)n(C)c3)n(C)c1)N=CC1CCCN1C2=O (stereo unspecified) and tell me its recorded TGI on BT-549 breast.
**Result** 44.7 µM

**Query** Jot down TGI (BT-549 breast) of O=C(O)CCC1(C(=O)O)CCC(=O)c2ccccc21 (stereo unspecified) .
**Result** > 100 µM

**Query** Recall the reported TGI of "CCOC(=O)c1cc(C)n(CN(CCO)Cn2nc(C(=O)OCC)cc2C)n1" on BT-549 breast and write it down.
**Result** 68.7 µM

**Query** # assay system BT-549 breast: give TGI of CC1CC(c2ccccc2)Nc2nc3ccccc3n21 (stereo unspecified)
**Result** > 100 µM
